Values from PubChem BioAssay AID1159580

assay: chemical genetic growth profiling, strain panel (AID 1159580);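 further: tested at 20 µM; growth read once vehicle control cultures reached saturation at 30 °C; lower values mean less growth of the strain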; details: S. cerevisiae deletion strains, growth OD, locus YDL005C, strain med2
Out of some 5,500 compounds screened, about 2,000 (36%) were called active. Inconclusive results (about 18%) are left out. No stated cut-off is given here; in the data, active means normalized growth mostly below about 0.91 (no sharp cut-off); inconclusive means no clear call, values can overlap the other calls; inactive means mostly above about 0.92. Some of the results follow. Where a SMILES comes first, the peptide text is derived from it. Bridges are numbered along the chain shown (N, C = ends). [ ]: non-standard residue; d: D form. The star is where a group is joined. ξ: configuration not given here. ξDab(CH2SO3H) = NC(CCNCS(=O)(=O)O)C(=O)O; Heptanoyl(6-Me) = CC(C)CCCCC(=O)*; Dab = NCC[CH](N)C(=O)O
Please answer using one outcome listed in active, inactive

Below, 5 molecules whose answers are already recorded.
molecule: CCCCCCCCCCCCCCC(C(=O)O)C(O)(CC(=O)OC)C(=O)O (stereo not given)
assigned class: inactive
//
molecule: CC1(C)CC[C@]2(C)CC[C@]3(C)C(=CCC4[C@@]5(C)CC[C@H](O)C(C)(C)C5CC[C@]43C)C2C1 (stereo not given in full)
assigned class: inactive
//
molecule: NC12CC3CC(CC(C3)C1)C2
assigned class: inactive
//
molecule: Nc1ccc(S(=O)(=O)Nc2cnc3ccccc3n2)cc1
assigned class: inactive
//
molecule: Cc1cc(-n2c(=O)[nH]c(=O)n(C)c2=O)ccc1Oc1ccc(SC(F)(F)F)cc1
assigned class: active

Q. Hi, sorry to bother you, what did the test record for CCC(C)C1NC(=O)C(CCNCS(=O)(=O)O)NC(=O)C(NC(=O)C(CCNCS(=O)(=O)O)NC(=O)C(NC(=O)C(CCNCS(=O)(=O)O)NC(=O)CCCCC(C)C)C(C)O)CCNC(=O)C(C(C)O)NC(=O)C(CCNCS(=O)(=O)O)NC(=O)C(CCNCS(=O)(=O)O)NC(=O)C(C(C)CC)NC1=O (stereo not given) ({Heptanoyl(6-Me)}-[ξDab(CH2SO3H)]T[ξDab(CH2SO3H)][Dab][ξDab(CH2SO3H)]II[ξDab(CH2SO3H)][ξDab(CH2SO3H)]T; lactam 4-C; configuration not given here) ?
A. inactive

Q. Hi, sorry to bother you, what did the test record for CCOC(=O)OC(C)OC(=O)C1N2C(=O)C(NC(=O)[C@H](N)c3ccccc3)C2SC1(C)C (stereo not given in full) ?
A. inactive

Q. Hi, sorry to bother you, what did the test record for COc1c(-c2coc3cc4c(cc3c2=O)CC(O)C(C)(C)O4)ccc2c1C=CC(C)(C)O2 (stereo not given) ?
A. inactive

Q. Hi, sorry to bother you, what did the test record for CC1(C)CC[C@]2(C(=O)O)CC[C@]3(C)C(=CCC4[C@@]5(C)CC[C@@H](O)C(C)(C)C5CC[C@]43C)C2C1 (stereo not given in full) ?
A. inactive

Q. Hi, sorry to bother you, what did the test record for `O=C(O)CC(O)(CC(=O)O)C(=O)O` ?
A. inactive

Q. Hi, sorry to bother you, what did the test record for `O=C(CNC(=O)c1ccc(Cl)cc1)NO` ?
A. inactive

Q. Hi, sorry to bother you, what did the test record for `CCCCCCCCCCCC[C@H](C(=O)O)[C@@H](C)C(=O)O` ?
A. inactive

Q. Hi, sorry to bother you, what did the test record for `NC(N)=N/N=C/c1c(Cl)cccc1Cl` ?
A. inactive

Q. Hi, sorry to bother you, what did the test record for COc1c(-c2coc3cc4c(cc3c2=O)CC(OC(C)=O)C(C)(C)O4)ccc2c1C=CC(C)(C)O2 (stereo not given) ?
A. inactive

Q. Hi, sorry to bother you, what did the test record for `O=C(Nc1ccc(C(=O)O)c(O)c1)c1ccccc1` ?
A. inactive
